Where do the numbers come from? From patent US6716596B2.

Measured target: horse liver alcohol dehydrogenase (HLADH) (Equus caballus)
Construct: purchased Sigma
Sequence (P00327 2-375 limits assumed): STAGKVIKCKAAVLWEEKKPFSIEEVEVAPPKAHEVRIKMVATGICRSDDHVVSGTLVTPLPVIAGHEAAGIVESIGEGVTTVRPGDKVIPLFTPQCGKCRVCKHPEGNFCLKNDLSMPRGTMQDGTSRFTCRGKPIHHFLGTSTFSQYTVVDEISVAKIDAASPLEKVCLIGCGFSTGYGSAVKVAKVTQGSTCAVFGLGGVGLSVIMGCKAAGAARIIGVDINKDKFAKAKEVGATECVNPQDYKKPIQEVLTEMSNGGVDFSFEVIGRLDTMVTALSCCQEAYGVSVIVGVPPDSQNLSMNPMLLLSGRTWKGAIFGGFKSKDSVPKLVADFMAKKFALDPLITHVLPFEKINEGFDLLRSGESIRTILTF
Test: HLADH enzymatic chiral reduction of ketones with biomimic co-factor regeneration
Type: biochemical
Experimental: FIG. 7 presents structures of ketone substrates 12-15 used for biomimic chiral synthesis of corresponding alcohols. […] The S-enantiomeric excess (ee) was determined by GLC with a modified β-cyclodextrin capillary column. […] Under positive argon pressure, 5 mL of potassium phosphate buffer (100 mM, pH=7.02, deoxygenated) and carbonyl substrate (83.58×10^−3 mmol, deoxygenated) were added via syringe. […] The enantiomeric excess of the products was determined directly by their relative area in the chromatogram. […]
Structures can show the parent of a compound that is named as a salt.
Test readout: recognition by HLADH as hydride catalyst of the chiral conversion

COP(=O)([O-])OC[C@H]1O[C@@H]([n+]2cccc(C(N)=O)c2)[C@H](O)[C@@H]1O: recognizes
COP(=O)(O)OC[C@H]1O[C@@H](N2C=CCC(C(N)=O)=C2)[C@H](O)[C@@H]1O: recognizes
NC(=O)c1ccc[n+](Cc2ccccc2)c1 [Compound 1a, 1-Benzylnicotinamide, Triflate Salt]: recognizes
NC(=O)C1=CN(Cc2ccccc2)C=CC1 [Compound 3, 1-benzyl-1,4-dihydronicotinamide]: recognizes
